Target: KRAS WT (Homo sapiens (Human), UniProt P01116)
Sequence (P01116-2 other isoform, or with tags, fused parts or gaps): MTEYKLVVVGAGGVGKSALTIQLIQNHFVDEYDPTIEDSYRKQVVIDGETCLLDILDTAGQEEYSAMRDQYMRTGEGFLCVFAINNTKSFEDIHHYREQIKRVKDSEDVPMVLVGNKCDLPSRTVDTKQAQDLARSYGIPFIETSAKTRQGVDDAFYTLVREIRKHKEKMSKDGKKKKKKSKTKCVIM
Experiment: KRAS WT Biochemical Assay, BODIPY-GDP Exchange TR-FRET (Example 501; 3 nM KRAS WT, 3 nM SOS1, 60-minute incubation)
Conditions: read-out: KRas(wt) GDP HTRF IC50
pIC50: −log10 of the molar value.
Binary call on pIC50: 1 from 7 upward, -1 beneath that.

Entry C[C@@H]1Oc2nc(-c3cncc4cccc(Cl)c34)c(F)c3nc(OC[C@@]45CCCN4C[C@H](F)C5)nc(c23)N2C[C@H]3CC[C@H](N3)[C@@H]12 : is its pIC50 no less than 7?
-1

Entry Cc1cc(N)nc(-c2nc3c4c(nc(OC[C@@]56CCCN5CC5(CC5(F)F)C6)nc4c2F)N2C[C@H]4CC[C@H](N4)[C@H]2[C@H](C)O3)c1C(F)(F)F (some centres unmarked) : is its pIC50 no less than 7?
1

Entry Cc1cc(-c2nc3c4c(nc(OC[C@@]56CCCN5C[C@H](F)C6)nc4c2F)N2C[C@H]4CC[C@H](N4)[C@H]2[C@H](C)O3)cc(N)c1F : is its pIC50 no less than 7?
-1

Entry C#Cc1cccc2cc(O)cc(-c3nc4c5c(ncnc5c3F)N3C[C@H]5CC[C@H](N5)[C@H]3[C@H](C)O4)c12 : is its pIC50 no less than 7?
-1

Entry Cc1cc(-c2nc3c4c(nc(OC[C@@]56CCCN5C[C@H](F)C6)nc4c2F)N2C[C@H]4CC[C@H](N4)[C@H]2[C@H](C)O3)c(F)c(N)c1F : is its pIC50 no less than 7?
-1

Entry Cc1cc(N)cc(-c2nc3c4c(nc(OC[C@@]56CCCN5C[C@H](F)C6)nc4c2F)N2C[C@H]4CC[C@H](N4)[C@H]2[C@H](C)O3)c1C(F)(F)F : is its pIC50 no less than 7?
1

Entry C=C1CN2CCC[C@@]2(COc2nc3c4c(nc(-c5nc(N)cc(C)c5C(F)(F)F)c(F)c4n2)O[C@@H](C)[C@@H]2[C@@H]4CC[C@H](CN32)N4)C1 : is its pIC50 no less than 7?
1

Entry CCc1cccc2cc(O)cc(-c3nc4c5c(nc(OC[C@@]67CCCN6C[C@H](F)C7)nc5c3F)N3C[C@H]5CC[C@H](N5)[C@H]3[C@H](C)O4)c12 : is its pIC50 no less than 7?
1

Entry Cc1cc(N)c(F)c(-c2nc3c4c(nc(OCC56CCN5CC(F)(F)C6)nc4c2F)N2C[C@H]4CC[C@H](N4)[C@H]2[C@H](C)O3)c1C(F)(F)F (mixture of isomers) : is its pIC50 no less than 7?
1

Entry Cc1cc(N)c(F)c(-c2nc3c4c(nc(OC[C@@]56CCCN5C[C@H](F)C6)nc4c2F)N2C[C@H]4CC[C@H](N4)[C@H]2CO3)c1C(F)(F)F : is its pIC50 no less than 7?
1

====

Target: KRAS WT (Homo sapiens (Human), UniProt P01116)
Experiment: KRAS WT Biochemical Assay, BODIPY-GDP Exchange TR-FRET (Example 501; 3 nM KRAS WT, 3 nM SOS1, 60-minute incubation)
Conditions: read-out: KRas(wt) GDP HTRF IC50
Description: Example 501: KRAS WT Biochemical Assay, BODIPY-GDP Exchange TR-FRET. Biochemical compound potencies are assessed by evaluating inhibition of SOS1-mediated nucleotide exchange in KRAS WT. In this assay, the SOS1-promoted exchange of fluorescently-labeled GDP (BOPIDY-GDP) is monitored by time-resolved fluorescence resonance energy transfer (TR-FRET). […] After a 60-minute incubation, the fluorescence is measured with excitation at 337 nm and emission at 490 and 520 nm. […]
measurement kind: pIC50
Scale for pIC50: -log10 of concentration given in mol/L; no unit attached.

Checklist item: pIC50 tested on KRAS WT (Homo sapiens (Human), UniProt P01116), entry C[C@@H]1Oc2nc(-c3cccc(N)c3F)c(F)c3nc(OC[C@@]45CCCN4C[C@H](F)C5)nc(c23)N2C[C@H]3CC[C@H](N3)[C@@H]12 , value?
4.43

Checklist item: pIC50 tested on KRAS WT (Homo sapiens (Human), UniProt P01116), entry Cc1c(F)c(N)cc(-c2nc3c4c(nc(OC[C@@H]5CC[C@H]6COCCN65)nc4c2F)N2C[C@H]4CC[C@H](N4)[C@H]2[C@H](C)O3)c1C(F)(F)F , value?
8.81

Checklist item: pIC50 tested on KRAS WT (Homo sapiens (Human), UniProt P01116), entry C[C@@H]1Oc2nc(-c3cc(N)c(F)cc3C(F)(F)F)c(F)c3nc(OC[C@@]45CCCN4C[C@H](F)C5)nc(c23)N2C[C@H]3CC[C@H](N3)[C@@H]12 , value?
8.18

Checklist item: pIC50 tested on KRAS WT (Homo sapiens (Human), UniProt P01116), entry C[C@@H]1Oc2nc(-c3cncc4ccccc34)c(F)c3nc(OC[C@@]45CCCN4CC4(CC4(F)F)C5)nc(c23)N2C[C@H]3CC[C@H](N3)[C@@H]12 (stereo partly shown) , value?
6.22
